For each record, write down the corresponding activity change, negative = inhibition.
target: Guanidinoacetate N-methyltransferase (Homo sapiens) (UniProt Q14353); test: Confirmatory Screen for Target Class Profiling of Small Molecule Inhibitors of Methyltransferases (AID 1745852); details: MTase-Glo luminescence, SAH detection, recombinant enzyme; at 57.3 µM (top of the series) unless noted; also: % is scaled to controls: 0 for no effect and ±100 for the full control effect
Answer format: numeric, % implied, no suffix.

Measured activity change, negative = inhibition for this entry C[C@H](Cc1ccccc1)Nc1ncnc2c1ncn2[C@@H]1O[C@H](CO)[C@@H](O)[C@H]1O on Guanidinoacetate N-methyltransferase (Homo sapiens) (UniProt Q14353): -3.97

# lookup: C=CC(=O)N1CCN(C(=O)c2cc(-c3cc(Cl)ccc3Cl)c(Cl)cc2OC)CC1 on Guanidinoacetate N-methyltransferase (Homo sapiens) (UniProt Q14353), activity change, negative = inhibition = -11.4

The compound COc1ccc(C(=O)N(CCC(C)C)Cc2nc(C)c(C)n2Cc2ccccc2C)c(OC)c1 , tested on Guanidinoacetate N-methyltransferase (Homo sapiens) (UniProt Q14353), showed activity change, negative = inhibition of -6.57

Sample c1ccc(Cn2c(-c3ccc(OCC(C4CCNCC4)n4c(-c5ccccc5)nc5ccccc54)cc3)nc3ccccc32)cc1 (stereo not given) , system: Guanidinoacetate N-methyltransferase (Homo sapiens) (UniProt Q14353). Its activity change, negative = inhibition is -5.98

Lab note: compound O=C(O)c1ccc(O)c2ncc(N3CCCN(CCc4cccc5ccccc45)CC3)cc12 tested on Guanidinoacetate N-methyltransferase (Homo sapiens) (UniProt Q14353); recorded activity change, negative = inhibition was 8.48

Form field activity change, negative = inhibition for item CC1CCN(C(c2ccc(F)cc2)c2ccc(C(C)C(=O)O)cc2-c2ccc(C(F)(F)F)cc2)CC1 (stereo not given) on Guanidinoacetate N-methyltransferase (Homo sapiens) (UniProt Q14353): 0

Record Oc1cc2c(c(Cl)c1O)CCNCC2c1ccccc1 (stereo not given) ; system Guanidinoacetate N-methyltransferase (Homo sapiens) (UniProt Q14353); activity change, negative = inhibition = 2.7

Entry Nc1nc(NCC2CCC(CNS(=O)(=O)c3cccc4ccccc34)CC2)nc2ccccc12 (stereo not given) , Guanidinoacetate N-methyltransferase (Homo sapiens) (UniProt Q14353) data, activity change, negative = inhibition value: -4.41

For the compound CN1C2CCCC1CC(NC(=O)c1nn(C)c3ccccc13)C2 (stereo not given) , the measured activity change, negative = inhibition on Guanidinoacetate N-methyltransferase (Homo sapiens) (UniProt Q14353) was 5.2

Response field activity change, negative = inhibition (Guanidinoacetate N-methyltransferase (Homo sapiens) (UniProt Q14353)) for item CC(C)n1nc(-c2ccc(NC(=O)Nc3cccc(C(F)(F)F)c3)cc2)c2c(N)ncnc21 : 0

----------
molecular target: D(1A) dopamine receptor (Homo sapiens) (UniProt P21728); assay: HTS Assay for Allosteric Agonists of the Human D1 Dopamine Receptor: Primary Screen for Agonists (AID 488981); conditions: Inducible HEK293 T-REx D1 cells, calcium-flux fluorescence, 180 s kinetic; series mostly up to 41.8 µM; also: 0% is about no effect
Sequence (P21728 whole entry, looked up): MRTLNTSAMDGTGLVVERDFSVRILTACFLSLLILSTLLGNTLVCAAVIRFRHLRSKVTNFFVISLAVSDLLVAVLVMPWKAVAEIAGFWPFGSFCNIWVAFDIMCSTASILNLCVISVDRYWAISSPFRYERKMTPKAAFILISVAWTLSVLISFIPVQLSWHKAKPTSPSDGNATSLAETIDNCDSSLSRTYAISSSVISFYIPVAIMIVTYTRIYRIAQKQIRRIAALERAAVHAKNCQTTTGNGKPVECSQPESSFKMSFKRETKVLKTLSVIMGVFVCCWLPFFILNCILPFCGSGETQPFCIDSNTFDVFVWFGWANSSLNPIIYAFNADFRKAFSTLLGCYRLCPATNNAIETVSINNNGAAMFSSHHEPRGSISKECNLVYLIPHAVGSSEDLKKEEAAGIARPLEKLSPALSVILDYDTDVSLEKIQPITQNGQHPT
Inconclusive results are not listed. Activity calls are given as the source filed them. Calls come from the whole dose curve; as a rule, active = well fitted activation curve with a large enough effect; inconclusive = small, poorly fitted or top-dose-only effect; inactive = flat fitted curve, though single readings scatter.
Parameter: outcome

Example results:
CCc1ccc(/C=C2/SC(=S)NC2=O)cc1; inactive
N.N.O=C(O)C1(C(=O)O)CCC1.[Pt+2]; inactive
CC[N+](CC)(CC)CC; inactive
N#C/C(=C\c1ccc(O)c(O)c1)C(=O)Nc1ccccc1; inactive

Consider now this further compound.
Reported outcome of Nc1c(S(=O)(=O)O)cc(Nc2ccc(Nc3nc(Cl)nc(Nc4ccc(S(=O)(=O)O)cc4)n3)c(S(=O)(=O)O)c2)c2c1C(=O)c1ccccc1C2=O : inactive

----------
experiment: qHTS Assay for Lipid Storage Modulators (AID 1519); conditions: Drosophila S3 cells, BODIPY lipid droplet/cell ratio, laser cytometry; measured here: lipid channel max response; cells loaded with oleic acid
Inconclusive results are not listed.
Would you kindly list max response for each of these molecules?
Quick note: give the figure in %, leave out the unit.

Memo: N[C@H](CCC(=O)N[C@H](CSN=O)C(=O)NCC(=O)O)C(=O)O , reported max response: 16.6

max response reported for this molecule C[C@](N)(COP(=O)(O)O)C(=O)O : 21.4

Value of max response reported for the molecule CSc1ccc2c(c1)[C@H](N1CCN(C)CC1)Cc1ccccc1S2 is -12.6

response.value for C=C[C@@]1(C)CC(=O)[C@@]2(O)[C@@]3(C)[C@@H](O)CCC(C)(C)[C@@H]3[C@H](O)[C@H](OC(C)=O)[C@@]2(C)O1 (field: max response) = 18.7

# molecule CCCn1c(=O)c2[nH]c(-c3ccc(OCC(=O)Nc4ccc(C(C)=O)cc4)cc3)nc2n(CCC)c1=O ; its max response = 10.1

Per the record, CCOc1nc2cccc(C(=O)OC(C)OC(=O)OC3CCCCC3)c2n1Cc1ccc(-c2ccccc2-c2nn[nH]n2)cc1 (stereo unspecified) has max response of -78.8

Record summary for O=C(Nc1ccc(C(=O)Nc2ccc(C(=O)Nc3ccc(S(=O)(=O)O)c4cc(S(=O)(=O)O)cc(S(=O)(=O)O)c34)cc2)cc1)Nc1ccc(C(=O)Nc2ccc(C(=O)Nc3ccc(S(=O)(=O)O)c4cc(S(=O)(=O)O)cc(S(=O)(=O)O)c34)cc2)cc1 : reported max response = 0.0462

The reported max response of the molecule N[C@H](C(=O)O)C1[C@H](C(=O)O)[C@H]1C(=O)O (stereo partly specified) was -12.9

Looking up CC(N)=NCCCC[C@H](N)C(=O)O , I found its max response recorded as -10.8

Form: molecule = Cc1cccc(C)c1NC(=O)C[N+](C)(C)C ; max response = -11.6

max response for CO[C@@]12C[C@@H](COC(=O)c3cncc(Br)c3)CN(C)[C@H]1Cc1cn(C)c3cccc2c13 is -4.61

----------
tested on: NAD(P)H diaphorase (Clostridium kluyveri); experiment: Diaphorse counterscreen qHTS: Assay Interference Panel against the NCATS CANVASS Library (AID 1347362); settings: Diaphorase enzyme, resazurin to resorufin fluorescence; series mostly up to 57.5 µM; also: 0% is about no effect
Inconclusive results are not listed. Calls of active or inactive are those of the source. The call rests on the fitted dose curve; in most records, active means well fitted inhibition curve with a large enough effect; inconclusive means small, poorly fitted or top-dose-only effect; inactive means flat fitted curve, though single readings scatter.
Parameter: activity change, negative = inhibition

C[C@@H](CCC[C@]1(C)C(=O)C=C[C@]23C[C@H]4C[C@H](O[C@@]4(C)C2)C31)C(=O)N[C@@H](CO)C(=O)O (stereo partly drawn); inactive
CC1C(=O)C23CCC1C[C@]21O[C@@H]2C(C)(C)C=CC(=O)[C@@]23COC1=O (stereo partly drawn); inactive
O=C(O)CC1OCc2c(O)cccc21 (stereo not drawn); inactive
C=CC(C)(C)C(=O)[C@@H](C)[C@@H]1CC[C@](C)(C=C)O1; inactive
O=C1C[C@@H](c2ccc(O)c(-c3c(O)cc(O)c4c3O[C@H](c3ccc(O)cc3)CC4=O)c2)Oc2cc(O)cc(O)c21; inactive

Data point: CC1(C)[C@H](Br)CC[C@]23C[C@]4(C)C(=O)CC12C[C@H]34 ; activity change, negative = inhibition = inactive

In plain terms, CO[C@@H]1[C@H](O)[C@@H](C)O[C@@H](OC[C@H]2/C=C/C=C/C(=O)C(C)C[C@H](C)C(O[C@@H]3O[C@H](C)CC4(OC(=O)O[C@@H]4C)C3O)[C@@H](C)/C=C/C(=O)OC2C)[C@@H]1OC (stereo partly drawn) has a documented activity change, negative = inhibition of inactive

The reported value for Oc1ccc(/C=C2/c3cc(O)cc(O)c3C(c3ccc(O)cc3)[C@H]2c2cc(O)cc(O)c2)cc1 (stereo partly drawn) in terms of activity change, negative = inhibition is inactive

----------
assay: qHTS for Inhibitors of Plasmodium falciparum (GB4) proliferation (AID 504315); also: nearly all actives have a fitted effect of over 50% in size; conditions: P. falciparum GB4 in erythrocytes, SYBR Green DNA, 72 h; series mostly up to 6.7 µM
Results filed as inconclusive are left out. Activity calls are given as the source filed them. Calls come from the whole dose curve; as a rule, active = well fitted inhibition curve with a large enough effect; inconclusive = small, poorly fitted or top-dose-only effect, or effect the other way; inactive = flat fitted curve, though single readings scatter.
In this exercise, the only acceptable responses are YES = active, NO = inactive

input: How was CC(=O)C1=C(C)N(Cc2ccco2)C(=O)NC1c1ccccc1 (centres undefined) classified in this test?
output: NO

input: What call does the record list for C=C(C(=O)OCC)C(=O)c1ccccc1 ?
output: NO

input: Can you look up the reported call for COC1=C[C@H](C(=O)NCc2ccc(OC)cc2)C(C)C(c2ccccc2)CC1=O (some centres undefined) for me?
output: NO

input: Each compound tested received a call. Report the one for CC(C)=CCN1C(=O)[C@]2(O[C@H](COc3ccccc3)CC3=CCCC32)c2c(Br)cccc21 (some centres undefined) .
output: YES

input: Would you mind telling me which call this test gave COC(=O)c1ccc(CN2C(=O)[C@]3(OCCC=C[C@@H]3C)c3cc(OC)ccc32)cc1 ?
output: NO

input: Entry CCCCc1nc2c(c3c1C[C@H](C)OC3)CN(S(=O)(=O)c1ccc(C)cc1)CC2 : call = ?
output: NO

input: What was the test verdict on C=CCC(Nc1ccc(OC)cc1)C(=O)OCC (centres undefined) ?
output: NO

input: Recorded test call requested for O=C(NN=C1C[C@@H](O)[C@H](O)[C@H]2[C@@H]3C(=O)N(C[C@@H]4CCCO4)C(=O)[C@@H]3CC[C@H]12)OCc1ccccc1
output: NO

input: How did this test come out for COc1cc2c(cc1OC)[C@@H]1O[C@](CCCCN3C(=O)c4ccccc4C3=O)(C2)OC2=C1C(=O)c1ccccc1C2=O ?
output: YES

Every entry's value here was drawn from PubChem BioAssay (NCATS).
